Biological target: CCDC47 (Coiled-Coil Domain Containing 47) (Homo sapiens, UniProt Q96A33)
Construct: endogenous CCDC47 in HepG2 cells
Sequence (Q96A33 21-483): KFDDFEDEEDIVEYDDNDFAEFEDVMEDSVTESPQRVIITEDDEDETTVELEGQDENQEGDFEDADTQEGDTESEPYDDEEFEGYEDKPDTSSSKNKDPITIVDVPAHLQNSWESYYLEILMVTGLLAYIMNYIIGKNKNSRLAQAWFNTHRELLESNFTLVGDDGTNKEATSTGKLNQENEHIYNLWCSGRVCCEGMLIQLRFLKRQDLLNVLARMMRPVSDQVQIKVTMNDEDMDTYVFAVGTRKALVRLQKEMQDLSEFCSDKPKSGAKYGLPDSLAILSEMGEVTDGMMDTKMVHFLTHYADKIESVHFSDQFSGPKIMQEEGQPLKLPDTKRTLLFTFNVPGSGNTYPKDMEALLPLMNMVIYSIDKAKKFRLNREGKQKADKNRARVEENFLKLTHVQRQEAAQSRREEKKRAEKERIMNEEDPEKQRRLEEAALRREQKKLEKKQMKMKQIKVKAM
Assay: isothermal CETSA at […] °C
assay_endpoint: EC50

// EC50 lookup, key: O=c1oc2cc(O)ccc2c2ccc(O)cc12 [UA, Urolithin A]
~38 µM
